Origin of measurements: ChEMBL document CHEMBL3352327

assayedTarget: 1-deoxy-D-xylulose 5-phosphate reductoisomerase (Escherichia coli K-12)
protocolNotes: Inhibition of His-tagged Escherichia coli DXR at 6 uM pre-incubated for 2 mins before reaction initiation in absence of 160 uM NADPH
readoutName: inhibition (%)
Please state the figure in %; there is no need to write the unit.

O=C(CN1C(=O)/C(=C/c2cccc(O)c2O)SC1=S)Nc1ccc(Oc2ccc(Cl)cc2)cc1 = 63
Cc1ccc(Oc2ccc(NC(=O)CN3C(=O)/C(=C/c4ccc(O)c(O)c4)SC3=S)cc2)cc1 = 38
O=C(CN1C(=O)/C(=C/c2ccc(O)c(O)c2)SC1=S)Nc1ccc(Oc2ccc(Cl)cc2)cc1 = 64
O=C(CN1C(=O)/C(=C/c2ccc(O)c(O)c2)SC1=S)NO = 70
Cc1ccc(Oc2ccc(NC(=O)CN3C(=O)/C(=C/c4cccc(O)c4O)SC3=S)cc2)cc1 = 60

Query :: # get_value(readout='inhibition', item= O=C(O)CN1C(=O)/C(=C/c2ccc(O)c(O)c2)SC1=S )
Result :: 61

###

assayedTarget: UniProtKB P45568
protocolNotes: Inhibition of His-tagged Escherichia coli DXR at 6 uM pre-incubated for 2 mins before reaction initiation in presence of 160 uM NADPH
inhibition values by entry
Please state the figure in %; there is no need to write the unit.

Query :: Item O=C(CN1C(=O)/C(=C/c2ccc(O)c(O)c2)SC1=S)NO with UniProtKB P45568 - inhibition?
Result :: 29

###

protocolNotes: Lipophilicity, log P of the compound
Type: physicochemical
assaySetup: octanol/water
logP values by entry
Number, no unit, nothing else.

O=C(CN1C(=O)/C(=C/c2ccc(O)c(O)c2)SC1=S)NO = 1.8

Moving on to the next molecule.
Query :: # get_value(readout='logP', item= O=C(O)CN1C(=O)/C(=C/c2ccc(O)c(O)c2)SC1=S )
Result :: 1

###

assayedTarget: 1-deoxy-D-xylulose 5-phosphate reductoisomerase (Escherichia coli K-12) (UniProt P45568)
Sequence (P45568 whole entry): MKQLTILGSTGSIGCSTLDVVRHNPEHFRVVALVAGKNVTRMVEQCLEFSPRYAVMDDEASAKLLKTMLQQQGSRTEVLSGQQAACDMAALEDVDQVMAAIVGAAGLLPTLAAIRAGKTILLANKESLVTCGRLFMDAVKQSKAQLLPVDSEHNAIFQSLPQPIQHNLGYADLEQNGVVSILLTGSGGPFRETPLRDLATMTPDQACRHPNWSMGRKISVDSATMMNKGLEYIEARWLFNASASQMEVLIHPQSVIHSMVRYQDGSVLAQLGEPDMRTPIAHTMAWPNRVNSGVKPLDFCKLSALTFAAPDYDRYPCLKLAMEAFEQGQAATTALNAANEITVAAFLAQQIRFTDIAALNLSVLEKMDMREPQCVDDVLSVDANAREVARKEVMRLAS
protocolNotes: Inhibition of His-tagged Escherichia coli DXR at 6 uM pre-incubated for 2 mins before reaction initiation in presence of 160 uM NADPH
inhibition values by entry
Please state the figure in %; there is no need to write the unit.

These solved cases illustrate the format of a correct answer.
Cc1ccc(Oc2ccc(NC(=O)CN3C(=O)/C(=C/c4ccc(O)c(O)c4)SC3=S)cc2)cc1 = 30
Cc1ccc(Oc2ccc(NC(=O)CN3C(=O)/C(=C/c4cccc(O)c4O)SC3=S)cc2)cc1 = 38
O=C(CN1C(=O)/C(=C/c2cccc(O)c2O)SC1=S)Nc1ccc(Oc2ccc(Cl)cc2)cc1 = 43
O=C(CN1C(=O)/C(=C/c2ccc(O)c(O)c2)SC1=S)Nc1ccc(Oc2ccc(Cl)cc2)cc1 = 41

Query :: # get_value(readout='inhibition', item= O=C(O)CN1C(=O)/C(=C/c2ccc(O)c(O)c2)SC1=S )
Result :: 41
